# tested system: plasma purified human complement protein C3 (human) (UniProt P01024)
# Sequence (P01024 23-667, chain 1 of 2): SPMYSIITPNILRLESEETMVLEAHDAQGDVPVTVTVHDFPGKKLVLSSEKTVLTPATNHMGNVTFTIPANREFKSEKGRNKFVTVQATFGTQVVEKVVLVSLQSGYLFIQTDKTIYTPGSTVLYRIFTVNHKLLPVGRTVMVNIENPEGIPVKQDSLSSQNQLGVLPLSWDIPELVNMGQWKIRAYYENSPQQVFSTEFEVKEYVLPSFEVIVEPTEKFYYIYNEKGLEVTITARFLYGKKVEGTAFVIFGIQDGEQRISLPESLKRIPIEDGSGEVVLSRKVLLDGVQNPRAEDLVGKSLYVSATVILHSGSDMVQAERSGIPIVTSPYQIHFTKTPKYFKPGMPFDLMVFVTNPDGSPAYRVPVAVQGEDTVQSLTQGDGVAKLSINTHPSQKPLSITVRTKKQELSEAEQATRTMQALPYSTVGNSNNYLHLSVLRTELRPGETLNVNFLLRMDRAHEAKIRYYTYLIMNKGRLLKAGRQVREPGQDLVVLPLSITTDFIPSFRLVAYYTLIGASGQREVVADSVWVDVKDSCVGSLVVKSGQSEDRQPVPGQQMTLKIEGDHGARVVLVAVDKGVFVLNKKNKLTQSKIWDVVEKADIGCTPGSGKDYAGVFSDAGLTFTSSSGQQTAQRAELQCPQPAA
# Sequence (P01024 672-1663, chain 2 of 2): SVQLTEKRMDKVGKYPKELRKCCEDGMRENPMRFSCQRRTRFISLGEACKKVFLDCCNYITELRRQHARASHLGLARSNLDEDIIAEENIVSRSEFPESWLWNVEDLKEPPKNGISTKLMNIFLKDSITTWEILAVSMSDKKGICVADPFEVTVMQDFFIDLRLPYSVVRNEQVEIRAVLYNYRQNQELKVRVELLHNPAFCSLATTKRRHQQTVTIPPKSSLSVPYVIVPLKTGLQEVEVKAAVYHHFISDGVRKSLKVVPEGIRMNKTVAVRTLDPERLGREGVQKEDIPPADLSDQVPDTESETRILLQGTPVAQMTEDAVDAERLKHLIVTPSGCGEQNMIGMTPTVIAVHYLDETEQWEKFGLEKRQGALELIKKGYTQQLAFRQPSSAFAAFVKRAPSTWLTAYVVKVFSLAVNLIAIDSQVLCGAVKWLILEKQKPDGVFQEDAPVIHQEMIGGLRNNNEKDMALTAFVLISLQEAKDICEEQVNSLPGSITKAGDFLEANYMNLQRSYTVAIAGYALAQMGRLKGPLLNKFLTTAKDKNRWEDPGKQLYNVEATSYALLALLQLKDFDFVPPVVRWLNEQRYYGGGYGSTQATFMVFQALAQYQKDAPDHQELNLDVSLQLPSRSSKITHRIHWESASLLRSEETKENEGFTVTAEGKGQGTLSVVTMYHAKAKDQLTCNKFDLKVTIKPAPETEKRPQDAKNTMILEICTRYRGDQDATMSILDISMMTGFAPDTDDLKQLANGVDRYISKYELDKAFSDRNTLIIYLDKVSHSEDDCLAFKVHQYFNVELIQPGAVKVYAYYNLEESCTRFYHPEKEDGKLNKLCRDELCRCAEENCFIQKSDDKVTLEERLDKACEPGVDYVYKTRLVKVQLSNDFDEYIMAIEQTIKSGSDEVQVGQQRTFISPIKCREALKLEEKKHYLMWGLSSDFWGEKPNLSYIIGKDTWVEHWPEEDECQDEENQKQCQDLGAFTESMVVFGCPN
# measurement notes: cell-based or functional assay
endpoint label: log10 EC50 hC3 cleavage (log10 of the value in nM)
Plainly stated, the numbers are log10 of EC50 hC3 cleavage given in nM.

Study these solved cases before continuing.
>  <binder>
MTSP-1 protease domain Q38Y/I41S/D60bT/F60eR/D96M/F97N/T98G/F99L/C122S/G151N/Q175L/Q192D (enzyme) VVGGTDADEGEWPWQVSLHALGYGHSCGASLISPNWLVSAAHCYIDTRGRRYSDPTQWTAFLGLHDQSQRSAPGVQERRLKRIISHPFFNMNGLDYDIALLELEKPAEYSSMVRPISLPDASHVFPAGKAIWVTGWGHTQYGGTNALILQKGEIRVINQTTCENLLPQLITPRMMCVGFLSGGVDSCDGDSGGPLSSVEADGRIFQAGVVSWGDGCAQRNKPGVYTRLPLFRDWIKENTGV

>  <log10 EC50 hC3 cleavage>
1.21

$$$$
>  <binder>
MTSP-1 protease domain I41D/F97R/F99L/C122S/G151Q/Q175R/Q192V (enzyme) VVGGTDADEGEWPWQVSLHALGQGHDCGASLISPNWLVSAAHCYIDDRGFRYSDPTQWTAFLGLHDQSQRSAPGVQERRLKRIISHPFFNDRTLDYDIALLELEKPAEYSSMVRPISLPDASHVFPAGKAIWVTGWGHTQYGGTQALILQKGEIRVINQTTCENLLPQRITPRMMCVGFLSGGVDSCVGDSGGPLSSVEADGRIFQAGVVSWGDGCAQRNKPGVYTRLPLFRDWIKENTGV

>  <log10 EC50 hC3 cleavage>
1.90

$$$$
>  <binder>
MTSP-1 protease domain I41D/D96E/F99L/C122S/G151N/Q192T (enzyme) VVGGTDADEGEWPWQVSLHALGQGHDCGASLISPNWLVSAAHCYIDDRGFRYSDPTQWTAFLGLHDQSQRSAPGVQERRLKRIISHPFFNEFTLDYDIALLELEKPAEYSSMVRPISLPDASHVFPAGKAIWVTGWGHTQYGGTNALILQKGEIRVINQTTCENLLPQQITPRMMCVGFLSGGVDSCTGDSGGPLSSVEADGRIFQAGVVSWGDGCAQRNKPGVYTRLPLFRDWIKENTGV

>  <log10 EC50 hC3 cleavage>
1.71

$$$$
>  <binder>
MTSP-1 protease domain Q38H/I41S/D60bT/F60eS/Y60gW/D96K/F97G/ins97aV/T98P/F99L/M117K/C122S/G151H/Q175L/Q192D (enzyme) VVGGTDADEGEWPWQVSLHALGHGHSCGASLISPNWLVSAAHCYIDTRGSRWSDPTQWTAFLGLHDQSQRSAPGVQERRLKRIISHPFFNKGVPLDYDIALLELEKPAEYSSKVRPISLPDASHVFPAGKAIWVTGWGHTQYGGTHALILQKGEIRVINQTTCENLLPQLITPRMMCVGFLSGGVDSCDGDSGGPLSSVEADGRIFQAGVVSWGDGCAQRNKPGVYTRLPLFRDWIKENTGV

>  <log10 EC50 hC3 cleavage>
0.68

$$$$

**Query** What measured log10 EC50 hC3 cleavage goes with MTSP-1 protease domain I41E/F97V/F99L/C122S/G151N/Q175L/Q192S (enzyme) VVGGTDADEGEWPWQVSLHALGQGHECGASLISPNWLVSAAHCYIDDRGFRYSDPTQWTAFLGLHDQSQRSAPGVQERRLKRIISHPFFNDVTLDYDIALLELEKPAEYSSMVRPISLPDASHVFPAGKAIWVTGWGHTQYGGTNALILQKGEIRVINQTTCENLLPQLITPRMMCVGFLSGGVDSCSGDSGGPLSSVEADGRIFQAGVVSWGDGCAQRNKPGVYTRLPLFRDWIKENTGV ?
**Result** 1.71

Values compiled from patent US20240018502A1.
